protocolNotes: Viscosity in aqueous solution at 20° C. (Example 82, Tables 1 and 2)
Assay type: physicochemical
experimentalSetup: calculated for 350 mgI/ml
measurementKind: Viscosity 350 mgI/ml (CALCULATED) (mPas)

compound	measurementKind	assayValue
O=C(NC(CO)C(O)CO)c1c(I)c(CO)c(I)c(NC(=O)C(O)C(O)CO)c1I (centres unmarked)	Viscosity 350 mgI/ml (CALCULATED)	12.2
O=C(Nc1c(I)c(CO)c(I)c(NC(=O)C(O)C(O)CO)c1I)C(O)C(O)CO (centres unmarked)	Viscosity 350 mgI/ml (CALCULATED)	10.4
O=C(NCC(O)CO)c1c(I)c(CO)c(I)c(NC(=O)C(O)C(O)CO)c1I (centres unmarked)	Viscosity 350 mgI/ml (CALCULATED)	9.4

I: O=C(NCC(O)CO)c1c(I)c(CO)c(I)c(N(CCO)C(=O)C(O)CO)c1I (centres unmarked)
II: O=C(CO)Nc1c(I)c(CC(O)CO)c(I)c(N(CC(O)CO)C(=O)CO)c1I (centres unmarked)
Prompt line: For this pair, I and II , which shows a numerically higher Viscosity 350 mgI/ml (CALCULATED)? Selection: enter the item's label.
Response line: I
(I: 13.4 mPas, II: 9.3 mPas)

* * *

protocolNotes: Viscosity in aqueous solution at 20° C. (Example 82, Tables 1 and 2)
Type: physicochemical
experimentalSetup: calculated for 400 mgI/ml
measurementKind: Viscosity at 400 mgI/ml (CALCULATED) (mPas)

molecule	assayValue
O=C(NC(CO)CO)c1c(I)c(CO)c(I)c(N(CCO)C(=O)CO)c1I [Example 49]	13.2

A: O=C(NCC(O)CO)c1c(I)c(CO)c(I)c(NC(=O)C(O)C(O)CO)c1I (centres unmarked) [Example 80]
B: O=C(NC(CO)C(O)CO)c1c(I)c(CO)c(I)c(NC(=O)C(O)C(O)CO)c1I (centres unmarked) [Example 81]
Prompt line: Could you check which of A and B has a smaller value for Viscosity at 400 mgI/ml (CALCULATED)? Lab log: write the label of the selected item as the result.
Response line: A

P: O=C(NC(CO)C(O)CO)c1c(I)c(CO)c(I)c(N(CCO)C(=O)C(O)CO)c1I (centres unmarked) [Example 39]
Q: CC(O)C(=O)Nc1c(I)c(CO)c(I)c(NC(=O)C(C)O)c1I (centres unmarked) [Example 8]
Prompt line: Select the item with the higher value of Viscosity at 400 mgI/ml (CALCULATED) from the options P and Q listed. Please respond with the label that marks your chosen entry.
Response line: P
(P: 20.4 mPas, Q: 11.0 mPas)

* * *

protocolNotes: Viscosity in aqueous solution at 20° C. (Example 82, Tables 1 and 2)
Type: physicochemical
experimentalSetup: calculated for 400 mgI/ml
measurementKind: Viscosity at 400 mgI/ml (CALCULATED) (mPas)

The cases that follow already have their Viscosity at 400 mgI/ml (CALCULATED) on record.
compound	unit	Viscosity at 400 mgI/ml (CALCULATED)
O=C(Nc1c(I)c(CO)c(I)c(NC(=O)C(O)C(O)CO)c1I)C(O)C(O)CO (stereo not shown)	mPas	17.2
CN(CC(O)CO)C(=O)c1c(I)c(CCO)c(I)c(NC(=O)CO)c1I (stereo not shown)	mPas	10.8
CC(O)C(=O)N(CCO)c1c(I)c(CO)c(I)c(C(=O)NC(CO)C(O)CO)c1I (stereo not shown)	mPas	17.8
CC(CO)(CO)C(=O)Nc1c(I)c(CO)c(I)c(C(=O)NCC(O)CO)c1I (stereo not shown)	mPas	17.4
O=C(CO)N(CC(O)CO)c1c(I)c(CC(O)CO)c(I)c(N(CC(O)CO)C(=O)CO)c1I (stereo not shown)	mPas	28.4
O=C(CO)Nc1c(I)c(CO)c(I)c(N(CC(O)CO)C(=O)CO)c1I (stereo not shown)	mPas	11.5

P: O=C(NC(CO)C(O)CO)c1c(I)c(CO)c(I)c(N(CCO)C(=O)CO)c1I (stereo not shown)
Q: O=C(NCCO)c1c(I)c(CO)c(I)c(NC(=O)C(O)CO)c1I (stereo not shown)
Prompt line: Sort P and Q by Viscosity at 400 mgI/ml (CALCULATED) descending and give the first. Could you answer with the label of the item you picked?
Response line: P

A: O=C(CO)Nc1c(I)c(CC(O)CO)c(I)c(N(CCO)C(=O)CO)c1I (stereo not shown)
B: O=C(C(O)CO)N(CCO)c1c(I)c(CO)c(I)c(N(CCO)C(=O)C(O)CO)c1I (stereo not shown)
Prompt line: Identify the item whose Viscosity at 400 mgI/ml (CALCULATED) is the smaller number: A or B // caller expects the label of the chosen entry
Response line: A
(A: 11.0 mPas, B: 15.8 mPas)

1: CC(O)C(=O)Nc1c(I)c(CO)c(I)c(C(=O)NCC(O)CO)c1I (stereo not shown)
2: O=C(NC(CO)(CO)CO)c1c(I)c(CO)c(I)c(N(CCO)C(=O)CO)c1I
3: O=C(c1c(I)c(CO)c(I)c(N2CCCC(O)C2=O)c1I)N(CC(O)CO)CC(O)CO (stereo not shown)
Prompt line: With regard to Viscosity at 400 mgI/ml (CALCULATED), arrange the entries in ascending order, please. Give the labels in the order specified.
Response line: 1, 2, 3
(1: 12.5 mPas, 2: 19.4 mPas, 3: 27.8 mPas)
